- testedOn: Mannose-6-phosphate isomerase (Homo sapiens)
- test: MPI inhibition at elevated mannose 6-phosphate – biochemical, fluorescence intensity, high mannose 6-phosphate, primary screen (AID 1220)
- measurementConditions: recombinant PMI enzyme, coupled fluorescence intensity; at 20 µM
The whole screen tested about 190,000 compounds, of which about 1,300 (0.68%) were called active. Cut-off read from the data, not from the text of the source: active = inhibition above about 50%; inactive = the rest. The sample as a whole holds a higher share of actives than the screen did.
# valid calls are yes (1) = active, no (0) = inactive; nothing else

Reference set (5 entries):
O=C(O)CSc1nnc(-c2ccncc2)n1CCc1ccccc1: no (0)
CCN(CC)S(=O)(=O)c1cccc(C(=O)N/N=C/c2ccc(OC)c(O)c2)c1: no (0)
CCN(CC)S(=O)(=O)c1cccc(C(=O)N/N=C/c2ccccc2OCC(=O)O)c1: no (0)
CCOC(=O)c1ccccc1NC(=O)CSc1ccccc1: no (0)
c1ccc(-n2cccc2CNC2CCCCC2)cc1: no (0)

*Q* Query: recorded result category for Cc1[nH]c2ccccc2c1CCNC(=O)c1ccc2c(c1[N+](=O)[O-])C(=O)c1ccccc1C2=O in this test
*A* yes (1)

*Q* Same lookup for CCn1c(C)nc2cc(C(=O)N/N=C/c3ccccc3C)ccc21 , please.
*A* no (0)

*Q* Same lookup for CCN(CC)S(=O)(=O)c1cccc(C(=O)N/N=C/c2cccc(O)c2O)c1 , please.
*A* yes (1)

*Q* Same lookup for CCN(CC)C(=O)c1ccc2c(c1[N+](=O)[O-])C(=O)c1ccccc1C2=O , please.
*A* no (0)

*Q* Same lookup for Cn1c(Cn2c(=O)sc3ccccc32)nnc1SCC(=O)Nc1ccccc1F , please.
*A* no (0)
